tested on: human PKK mRNA; experiment: Antisense inhibition of human PKK mRNA in HepaRG cells, 1,000 nM, MOE/deoxy/cEt oligonucleotides (Example 3); assay type: cell-based; conditions: HepaRG cells, 1,000 nM antisense oligonucleotide, Table 29
Strand notation (5' to 3'): a small letter for the sugar, then the base; units joined by * are phosphorothioate-linked, units joined directly phosphodiester-linked; [ ] holds rarer units or linkages, { } end groups; capitals alone tell only the bases. e = 2'-O-(2-methoxyethyl) (MOE); k = constrained ethyl (cEt); [5mC] = 5-methylcytosine; d = 2'-deoxy (DNA)
Task for the reader: assign each of the following substances its reported % inhibition.
Answer with a number only, understood to be in %.

State the recorded % inhibition for this entry: 548564 (antisense eT*eT*kG*d[5mC]*dT*dA*d[5mC]*dT*dT*dT*dA*d[5mC]*dA*k[5mC]*k[5mC]*eA) [compound 548564] 69

Next record, please: 548612 (antisense eG*eG*k[5mC]*dG*dG*dG*dA*dT*d[5mC]*dG*dG*dT*dG*kG*kT*eG) [compound 548612] 20

Same lookup for 548610 (antisense eG*eG*kA*dT*d[5mC]*dG*dG*dT*dG*dG*dT*dG*dG*kG*kA*eT) [compound 548610] , please. 2

Check 548599 (eT*eG*kG*dG*dT*dT*dG*dG*dA*dG*dG*dA*dG*kT*kG*eG; antisense) [compound 548599] too. 19

Could you do the same for 548588 (eA*eG*k[5mC]*dT*d[5mC]*dA*d[5mC]*dA*d[5mC]*d[5mC]*d[5mC]*dA*dA*kA*kA*eA; antisense) [compound 548588] , please? 10

Can you handle 548590 (eT*eG*kG*dT*d[5mC]*dA*dT*dG*dT*d[5mC]*dA*dA*d[5mC]*kT*kG*eT; antisense) [compound 548590] next? 35

Then what about the substance 548541 (antisense eG*eG*k[5mC]*dA*d[5mC]*dT*dG*dG*dT*d[5mC]*dA*dT*dG*kG*kA*e[5mC]) [compound 548541] ? 39

What do you have for 548601 (eT*eT*kG*dG*dT*dG*dG*dT*dG*dG*dG*dA*dT*kT*kG*eG; antisense) [compound 548601] ? 18

Input 548600 (eT*eG*kG*dT*dG*dG*dT*dG*dG*dG*dA*dT*dT*kG*kG*eT; antisense) [compound 548600] 53

Also 548540 (antisense eG*eA*k[5mC]*dA*d[5mC]*d[5mC]*dT*dG*d[5mC]*dT*dT*dG*dA*kT*kT*eA) [compound 548540] , if possible. 7

Let us now turn to 548536 (antisense eT*e[5mC]*kT*d[5mC]*dA*dA*dT*d[5mC]*d[5mC]*d[5mC]*dA*dA*d[5mC]*k[5mC]*k[5mC]*e[5mC]) [compound 548536] 0

Next substance up: 548552 (antisense eT*eG*kG*dA*dG*dG*dA*dG*dT*dA*dG*dG*dG*kA*kA*eT) [compound 548552] 10

Next entry: 548546 (antisense eG*e[5mC]*k[5mC]*d[5mC]*dA*dA*dG*d[5mC]*d[5mC]*dT*dA*d[5mC]*dA*kT*kG*e[5mC]) [compound 548546] 35

---

tested on: human PKK mRNA; assay: Dose-dependent antisense inhibition of human PKK in HepaRG cells, 0.11-3.00 uM (Example 6); assay type: cell-based; settings: electroporation, 0.33 μM, approx. 16 hours, relative to untreated control cells
Strand notation (5' to 3'): a small letter for the sugar, then the base; units joined by * are phosphorothioate-linked, units joined directly phosphodiester-linked; [ ] holds rarer units or linkages, { } end groups; capitals alone tell only the bases. e = 2'-O-(2-methoxyethyl) (MOE); k = constrained ethyl (cEt); [5mC] = 5-methylcytosine; d = 2'-deoxy (DNA)
# label = Criterion met if percent inhibition of PKK mRNA, 0.33 μM >= 30% else Criterion not met

Can 548155 (e[5mC]*eG*kT*dG*d[5mC]*dT*dG*dA*dA*dA*dG*d[5mC]*dG*kG*kG*e[5mC]; antisense) [compound 548155] be said to have percent inhibition of PKK mRNA, 0.33 μM at or above 30%? Criterion met

Next substance: 547947 (eG*eG*kA*dA*d[5mC]*dT*dT*dG*dG*dT*dG*dT*dG*k[5mC]*k[5mC]*eA; antisense) [compound 547947] Criterion met

Continue with 548128 (eA*eT*kT*dG*d[5mC]*d[5mC]*dT*dA*dG*dA*d[5mC]*dT*d[5mC]*kT*kG*eG; antisense) [compound 548128] Criterion not met

And what about the substance 548422 (antisense eG*eT*kA*dT*d[5mC]*dA*d[5mC]*dT*dG*dT*d[5mC]*d[5mC]*dT*kA*kT*eA) [compound 548422] ? Criterion met

Now this one: 548125 (antisense e[5mC]*eT*kA*dG*dA*d[5mC]*dT*d[5mC]*dT*dG*dG*dA*d[5mC]*kT*kG*e[5mC]) [compound 548125] Criterion met

Can you check 548338 (antisense eA*eT*kG*dA*dA*dA*d[5mC]*dT*dG*dT*dG*dG*d[5mC]*kT*k[5mC]*eG) [compound 548338] next? Criterion met

Thanks! And 548247 (antisense e[5mC]*eG*kA*dT*dT*dT*dT*d[5mC]*d[5mC]*dA*dT*dG*d[5mC]*kA*kT*eA) [compound 548247] ? Criterion met

Now give it for 548348 (antisense eT*eG*kA*dG*dT*dG*dA*dT*dG*d[5mC]*d[5mC]*dT*dT*k[5mC]*k[5mC]*eA) [compound 548348] too. Criterion met

For 548655 (antisense e[5mC]*e[5mC]*k[5mC]*dG*dA*dG*dG*dT*d[5mC]*dA*d[5mC]*dA*dT*kA*kA*eT) [compound 548655] then? Criterion not met

Here is the next substance: 548195 (eT*eT*k[5mC]*dT*dG*d[5mC]*d[5mC]*dA*dA*d[5mC]*dA*dG*dT*kT*kT*e[5mC]; antisense) [compound 548195] Criterion not met

Then what about the substance 547997 (antisense eT*eT*kG*dT*dG*dT*d[5mC]*d[5mC]*d[5mC]*dA*dT*dA*d[5mC]*kG*k[5mC]*eA) [compound 547997] ? Criterion met
